Origin of measurements: patent US20050049402A1

# tested_system: T1, human TNFα with histidine 73 deleted (human, UniProt P01375 77-233)
# T1 construct: Deletion of His73 written as two joined ranges; also called His 73del
# T1 sequence (P01375 other isoform, or with tags, fused parts or gaps): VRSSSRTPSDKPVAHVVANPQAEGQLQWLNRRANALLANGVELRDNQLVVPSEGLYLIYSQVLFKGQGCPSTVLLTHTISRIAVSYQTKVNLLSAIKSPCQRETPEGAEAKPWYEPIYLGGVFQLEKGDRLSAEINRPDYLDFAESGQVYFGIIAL
# experiment_description: ELISA on chimeric/mutant TNFα
measured_parameter: binding result

binder | endpoint_value
313 (antibody, human IgG1, V domains shown, Recombinant human IgG1 kappa; also called 313 Ab; SC313) VH: QVQLVESGGGVVQPGRSLRLSCAASGFTFSNHDIHWVRQAPGKGLEWVAVIWSDGSNKYYADSVKGRFTISRDNSKNTLYLQMNSLRAEDTAVYYCAREKMATIKGYYYYGMDVWGQGTTVTVSS VL: DIQMTQSPSSLSASVGDRVTITCRASQGIRNDLGWYQQKPGKAPKRLIYAASSLESGVPSRFSGSGSGPEFTLTISSLQPEDFATYYCLQHNSYPLTFGGGTKVEIQ | binds
250 (antibody, human IgG1, V domains shown, XENOMAX derived, recombinant human IgG1 kappa; also called 250Ab; SC250) VH: EVQLVESGGGLIQPGGSLRLSCAASGFTVSSNYMSWVRQAPGKGLEWVSVIYSGDRTYYADSVKGRFTISRDNSKNTLYLQMNSLRAEDTAVYYCARGEGGFDYWGQGTLVTVSS VL: EIVMTQSPATLSVSPGERATLSCRASQSVTSNLAWYQQKPGQAPRLLIHGASIRATGLPARFSGSGSGTEFTLTISSLQSEDFAVYYCQQYNYWWTFGQGTKVEIK | binds
282 (antibody, human IgG1, V domains shown, XENOMAX derived, recombinant human IgG1 kappa; also called 282 Ab; SC282) VH: QVQLVESGGGVVQPGRSLRLSCAASGFTVSSYGMHWVRQAPGKGLEWVAVIWSNGSNKYYADSVKGRFTISRDNSKNTLYLQMNSLRAEDTAVYYCARDNGVYVGYAYYYGMDVWGQGTTVTVSS VL: DIQMTQSPSSLSASVGDRVTITCRASQGIRNDLGWYQQKPGKAPKRLIYAASSLHSGVPSRFSGSGSGTEFTLTISSLQPEDFATYYCLQHNSYPWTFGQGTKVEIK | binds
269 (antibody, human IgG1, V domains shown, XENOMAX derived, recombinant human IgG1 kappa; also called 269Ab; SC269) VH: EVQLVESGGGLIQPGGSLRLSCAASEFTVSRNYMSWVRQAPGKGLEWVSVIYSGDRTYYADSVKGRFTISRDNSKNTLYLQMNSLRAEDTAVYYCARGEGGFDYWGQGTLVTVSS VL: EIVMTQSPATLSVSPGERATLSCRASQSVSSNLAWYQQKPGQAPRLLIHGASIRATGLPARFSGSGSGTEFTLTISSLQSEDFAVYYCQQYNYWWTFGQGTKVEIK | binds
